Target: Rho-associated protein kinase 2 (Homo sapiens)
Experiment: Inhibition of ROCK2 (unknown origin) at 200 uM using MYPT1 as substrate after 30 mins by immunoassay
Activity calls are given as the source filed them. The calls are words filed in the database; no cut-off is given here.
Outcomes: yes (1) for active, no (0) for inactive

Compound: COc1cc2c(cc1OC)C(C)N(C1CCCCC1O)CC2 (stereo unspecified)
Measured On: Rho-associated protein kinase 2 (Homo sapiens)
Class Name: no (0)
//
Compound: COc1cc2c(cc1OC)C(C1CCc3nc(N4CCOCC4)[nH]c(=O)c3C1)=NCC2 (stereo unspecified)
Measured On: Rho-associated protein kinase 2 (Homo sapiens)
Class Name: no (0)
//
Compound: COc1ccc(CC[N+](C)(CCO)C2CCCCC2)cc1OC (stereo unspecified)
Measured On: Rho-associated protein kinase 2 (Homo sapiens)
Class Name: no (0)
//
Compound: COc1cc2c(cc1OC)C(C(CO)CO)N(C(=S)Nc1ccccc1)CC2 (stereo unspecified)
Measured On: Rho-associated protein kinase 2 (Homo sapiens)
Class Name: yes (1)
//
Compound: COc1cc2c(cc1OC)C(C(CO)CO)N(C1CCCC1)CC2 (stereo unspecified)
Measured On: Rho-associated protein kinase 2 (Homo sapiens)
Class Name: no (0)
//
Compound: C#CC[N+]12CCc3cc(OC)c(OC)cc3C1C(CO)C2 (stereo unspecified)
Measured On: Rho-associated protein kinase 2 (Homo sapiens)
Class Name: no (0)
//
Compound: CCOc1ccc(CCN(CCO)C2CCCCC2O)cc1OCC (stereo unspecified)
Measured On: Rho-associated protein kinase 2 (Homo sapiens)
Class Name: yes (1)
//
Compound: CCOc1cc2c(cc1OCC)CN(C1CCCCC1O)CC2 (stereo unspecified)
Measured On: Rho-associated protein kinase 2 (Homo sapiens)
Class Name: no (0)
//
Compound: COc1cc2c(cc1OC)C1C(C)CN1CC2 (stereo unspecified)
Measured On: Rho-associated protein kinase 2 (Homo sapiens)
Class Name: no (0)
//
Compound: COc1ccc(CCNC2CCCCC2O)cc1OC (stereo unspecified)
Measured On: Rho-associated protein kinase 2 (Homo sapiens)
Class Name: no (0)
//
Compound: COc1cc2c(cc1OC)C1C(CO)COC(=N)N1CC2 (stereo unspecified)
Measured On: Rho-associated protein kinase 2 (Homo sapiens)
Class Name: no (0)
